B1: KCNK9 (parent)
chain: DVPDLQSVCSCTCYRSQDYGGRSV

# Variants of: B1
# protocol: protein stability index of a GFP-peptide fusion (GPS, HEK-293T) (PSI 1-6); higher = more stable;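 note: lentivirally expressed fusions sorted by FACS into six bins by GFP to DsRed ratio, PSI derived from sequencing read proportions per bin multiplied by bin number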
# cond: c terminus: a fixed tail appended

record sequence: DVPDLQSVCSCTCYRLQDYGGRSV
protein stability index: 2.87

record sequence: DVPDLQSVCSCTCYRYQDYGGRSV
protein stability index: 2.31

record sequence: DVPDLQHVCSCTCYRSQDYGGRSV
protein stability index: 1.92

record sequence: DVPDLQSVCSCTCYRSQDYHGRSV
protein stability index: 2.88

record sequence: DVPDLQSVCSCTCYRSQDYGGRIV
protein stability index: 3.17

record sequence: DVPDLQAVCSCTCYRSQDYGGRSV
protein stability index: 1.64

record sequence: DVPDLQSVCSCTCYRSQDYGGVSV
protein stability index: 2.82

record sequence: DVPDLQSVCDCTCYRSQDYGGRSV
protein stability index: 2.79

record sequence: DVPDLQSVCSCTCYRSQWYGGRSV
protein stability index: 1.61

record sequence: DVKDLQSVCSCTCYRSQDYGGRSV
protein stability index: 1.12

record sequence: DVPDLQSVCSITCYRSQDYGGRSV
protein stability index: 2.39

record sequence: DVPDLQSVCSCTCYRVQDYGGRSV
protein stability index: 1.03

record sequence: DVPDLQSECSCTCYRSQDYGGRSV
protein stability index: 2.24

record sequence: DVPDLQSVCSCTPYRSQDYGGRSV
protein stability index: 2.81

record sequence: DVWDLQSVCSCTCYRSQDYGGRSV
protein stability index: 1.33

record sequence: DVPDLQSVCSCTCYRSQDYGGISV
protein stability index: 1.93

record sequence: DVPDLQSVCSCTCYRSQDYGGRDV
protein stability index: 2.1

record sequence: DIPDLQSVCSCTCYRSQDYGGRSV
protein stability index: 1.78

record sequence: DVPDLQSVCSETCYRSQDYGGRSV
protein stability index: 4.65

record sequence: DVPDLQSVCSCTCYRSQDYGGLSV
protein stability index: 3.27

record sequence: DVPDLQSVCSRTCYRSQDYGGRSV
protein stability index: 2.34

record sequence: DVPDLQPVCSCTCYRSQDYGGRSV
protein stability index: 1.46

record sequence: DVPDLQYVCSCTCYRSQDYGGRSV
protein stability index: 2.07

record sequence: DVPDLQSVCSCTCYRMQDYGGRSV
protein stability index: 2.21

record sequence: DVPDLQSACSCTCYRSQDYGGRSV
protein stability index: 2.8

record sequence: CVPDLQSVCSCTCYRSQDYGGRSV
protein stability index: 1.04

record sequence: DVPDLQSVCSCTCYRSQDDGGRSV
protein stability index: 2.41

record sequence: DVPDLQSVCSMTCYRSQDYGGRSV
protein stability index: 2.13

record sequence: DVPDLQSVCSCTCLRSQDYGGRSV
protein stability index: 1.47

record sequence: DVPDLQSVCSCTCYRSQDVGGRSV
protein stability index: 1.66

record sequence: DVPDLQSVCSCTNYRSQDYGGRSV
protein stability index: 2.53

record sequence: DVPDLQFVCSCTCYRSQDYGGRSV
protein stability index: 2.32

record sequence: DVPDLQSVCSCTCYRSQDYGFRSV
protein stability index: 1.81

record sequence: DVPDLQSVCNCTCYRSQDYGGRSV
protein stability index: 1.47

record sequence: DVPDLQSVCSCTCYKSQDYGGRSV
protein stability index: 2.08

record sequence: DVPDLQSVCSCTCTRSQDYGGRSV
protein stability index: 1.5

record sequence: DVPDLQSLCSCTCYRSQDYGGRSV
protein stability index: 1.59

record sequence: DVPDCQSVCSCTCYRSQDYGGRSV
protein stability index: 1.83

record sequence: DWPDLQSVCSCTCYRSQDYGGRSV
protein stability index: 1.68

record sequence: PVPDLQSVCSCTCYRSQDYGGRSV
protein stability index: 2.33

record sequence: DGPDLQSVCSCTCYRSQDYGGRSV
protein stability index: 1.5

record sequence: DVPDLQSVCSCTCYRSQDYGGRSN
protein stability index: 2.5

record sequence: DVPDLQSVCSCTCYRSQDYGGFSV
protein stability index: 1.33

record sequence: DVPDEQSVCSCTCYRSQDYGGRSV
protein stability index: 3.6

record sequence: DVPDLQSVCSCTCYRSQDYEGRSV
protein stability index: 1.97

record sequence: DVPDLQSVCSCTCYRSIDYGGRSV
protein stability index: 1.87
